Cited source: patent US8969053B2

# Substrate: CC(=O)C=O
# test_protocol: purified protein, by the assay type
# run_parameters: other: methylglyoxal 1.3-30 mM, 0.2 mM NADPH, pH 7.5, 37° C.
measurement_type: kcat (s⁻¹)
Numbers only, in s⁻¹.

Exercise: Could you share which kcat value was measured for E. coli YqhD variant YqhD*(G149E) (Escherichia coli K-12; G149E) (protein) MNNFNLHTPTRILFGKGAIAGLREQIPHDARVLITYGGGSVKKTGVLDQVLDALKGMDVLEFGGIEPNPAYETLMNAVKLVREQKVTFLLAVGGGSVLDGTKFIAAAANYPENIDPWHILQTGGKEIKSAIPMGCVLTLPATGSESNAEAVISRKTTGDKQAFHSAHVQPVFAVLDPVYTYTLPPRQVANGVVDAFVHTVEQYVTKPVDAKIQDRFAEGILLTLIEDGPKALKEPENYDVRANVMWAATQALNGLIGAGVPQDWATHMLGHELTAMHGLDHAQTLAIVLPALWNEKRDTKRAKLLQYAERVWNITEGSDDERIDAAIAATRNFFEQLGVPTHLSDYGLDGSSIPALLKKLEEHGMTQLGENHDITLDVSRRIYEAAR ?
Key: 5.38
